Below is a list of entries, each paired with its recorded Flow data value.
# ASSAYED TARGET: T1, rat nectin-4 protein expressed on the surface of HEK 293 cells (rat, UniProt D3ZET1 31-509)
# T1 construct: whole, on cells
# T1 sequence: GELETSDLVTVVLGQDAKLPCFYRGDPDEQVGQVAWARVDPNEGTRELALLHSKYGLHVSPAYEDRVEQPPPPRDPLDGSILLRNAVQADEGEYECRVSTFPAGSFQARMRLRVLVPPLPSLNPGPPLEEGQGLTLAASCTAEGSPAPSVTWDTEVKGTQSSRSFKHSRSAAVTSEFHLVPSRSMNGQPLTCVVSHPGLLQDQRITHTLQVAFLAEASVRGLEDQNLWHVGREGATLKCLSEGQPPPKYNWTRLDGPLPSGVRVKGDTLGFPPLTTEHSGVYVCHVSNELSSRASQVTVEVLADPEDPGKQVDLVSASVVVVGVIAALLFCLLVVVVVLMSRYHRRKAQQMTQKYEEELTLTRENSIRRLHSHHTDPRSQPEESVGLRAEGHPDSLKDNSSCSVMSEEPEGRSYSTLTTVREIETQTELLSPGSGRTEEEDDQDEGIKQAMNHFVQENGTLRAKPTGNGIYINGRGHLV
# ASSAY COMMENT: flow cytometry, HEK 293 cells overexpressing the target
Respond numerically, and do not add a unit to the figure.

Sample answers from the record:
Query :: For Nectin-4 7 E8H/7 E8L (recombinant chimeric antibody) (antibody, V domains shown) VH: QVQLKQSGPGLVQPSQSLSITCTVSGFSLATYGVHWVRQSPGKGLEWLGVIWSGGSTDYNAAFISRLSISKDNSKSQVFFKMNSLQADDTAIYYCARNSHWYFDVWGTGTTVTVSS VL: DIVMTQSQKFMSTSVGDRVSVTCKASQNVVTNVAWYQQKPGQSPKALIYSASYRYSGVPDRFTGSGSGTDFTLTISHVQSEDLAEYFCHQYNNYPYTFGGGTKLEIK , what is its reported Flow data?
Result :: 5970

Query :: For Nectin-4 Hybridoma 6C8H/6C8L (recombinant chimeric antibody) (antibody, V domains shown) VH: QVQLKQSGPGLVQPSQSLSITCTVSGFSLSTYGVHWVRQSPGKGLEWLGVIWSGGSTDYNAAFISRLTISKDNSKSQIFFKMNSLQADDTAIYYCARMMSWYFDVWGTGTTVTVSS VL: DIVMTQSQKFMSTSVGDRVSVTCKASQNVVTNVAWYQQKPGQSPKALIYSASYRYSGVPDRFTGSGSGTDFTLTISNVQSEDLAEYFCQQYNSYPLTFGAGTKLELK , what is its reported Flow data?
Result :: 8920

Further cases:
Query :: For Nectin-4 3C12H/3C12L (recombinant chimeric antibody) (antibody, V domains shown) VH: QVQLKQSGPGLVQPSQSLSITCTVSGFSLTTYGVHWVRQSPGKGLEWLGVIWSGGNTDYNAAFISRLSISKDNSKSQVFFKMNSLQADDTAIYYCARMTHWYFDVWGTGTTVTVSS VL: DIVMTQSQKFMSTTVGDRVSITCKASQNVVTAVAWYQQKPGQSPKLLIYSASNRYTGVPDRFTGSGSGTDFTLTISYMQSEDLADYFCQQYSSYPLTFGAGTKLELK , what is its reported Flow data?
Result :: 5060
